- Test System: full length human TPH1 (Homo sapiens)
- Construct: To generate the enzyme, full length human TPH1 is cloned into the plasmid pET20b(+); made in house; host or cells: E. coli
- Sequence (P17752 1-444): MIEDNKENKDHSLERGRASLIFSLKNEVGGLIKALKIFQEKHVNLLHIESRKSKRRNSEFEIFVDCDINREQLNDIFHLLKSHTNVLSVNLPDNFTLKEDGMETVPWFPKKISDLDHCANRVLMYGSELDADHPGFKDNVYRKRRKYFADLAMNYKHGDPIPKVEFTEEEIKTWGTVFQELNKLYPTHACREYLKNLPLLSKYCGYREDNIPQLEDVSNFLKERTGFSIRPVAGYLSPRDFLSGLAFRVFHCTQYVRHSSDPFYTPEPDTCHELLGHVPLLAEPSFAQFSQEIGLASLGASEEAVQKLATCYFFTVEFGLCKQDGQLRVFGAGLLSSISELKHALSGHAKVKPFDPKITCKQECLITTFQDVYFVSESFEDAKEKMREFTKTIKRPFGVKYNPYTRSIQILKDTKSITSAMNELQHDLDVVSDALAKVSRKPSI
- Assay Remarks: Biochemical in vitro assay using fluorescence readout (TPH1 enzyme activity)
- Particulars: Table 1, mean where determined several times

Compound	IC50 [nM]
CCc1nc(C(=O)NC2CC2)ccc1OCC(=O)N1CCc2nc3n(c2C1c1ncc(C2CC2)cc1F)CCCC3 (stereo not drawn) [Example 1.3.2]	7
O=C(NC1CC1)c1ccc(OCC(=O)N2CCc3nc4n(c3[C@@H]2c2ccc(Cl)cc2F)CCCC4)c(Cl)n1 [Example 1.1.16]	12
Cc1nc(C)c(C2c3c(nc4n3CCCC4)CCN2C(=O)COc2ccc(NS(C)(=O)=O)nc2Cl)s1 (stereo not drawn) [Example 1.10.1]	12
Cc1ccc(C2c3c(nc4n3CCCC4)CCN2C(=O)COc2ccc(-c3ncco3)nc2Cl)c(F)c1F (stereo not drawn) [Example 1.9.1]	20
CCc1nc(C)ccc1OCC(=O)N1CCc2nc3n(c2C1c1ccc(Cl)cc1F)CCCC3 (stereo not drawn) [Example 1.1.15]	39
COCc1ccc(C2c3c(nc4n3CCCC4)CCN2C(=O)COc2ccc(NS(C)(=O)=O)nc2Cl)c(F)c1 (stereo not drawn) [Example 1.26.2]	25
CN(C)C(=O)c1ccc(OC2(C(=O)N3CCc4nc5n(c4C3c3ccc(Cl)cc3F)CCCC5)CC2)c(Cl)n1 (stereo not drawn) [Example 1.1.26]	51
Cc1nc(C)c(C2c3c(nc4n3CCCC4)CCN2C(=O)COc2ccc(C#N)cc2Cl)s1 (stereo not drawn) [Example 1.10.10]	207
CN(C)c1ncc(C2c3c(nc4n3CCNC4)CCN2C(=O)COc2ccc(N3CCOCC3)nc2Cl)s1 (stereo not drawn) [Example 5.6.1]	415
O=C(COc1cccnc1C(F)(F)F)N1CCc2nc3n(c2C1c1ncc(C2CC2)cc1F)CCNC3 (stereo not drawn) [Example 5.4.2]	456
CS(=O)(=O)Nc1ccc(OCC(=O)N2CCc3nc4n(c3C2c2ccc(C3CC3)cc2F)CCCC4)c(Cl)n1 (stereo not drawn) [Example 1.8.3]	22
O=C(COc1ccc(N2CCOCC2)nc1Cl)N1CCc2nc3n(c2C1c1ncc(C2CC2)cc1F)CCNC3 (stereo not drawn) [Example 5.4.3]	20
CCc1nc(C)ccc1OCC(=O)N1CCc2nc3n(c2C1c1ccc(Cl)cc1F)CCS3 (stereo not drawn) [Example 4.1.8]	28
CN(C)C(=O)c1ccc(OCC(=O)N2CCc3nc4n(c3C2c2ccc(Cl)cc2F)CCN(C2CC2)C4)c(Cl)n1 (stereo not drawn) [Example 5.1.4]	41
CCc1nc(N2CCCS2(=O)=O)ccc1OCC(=O)N1CCc2nc3n(c2C1c1scnc1C)CCCC3 (stereo not drawn) [Example 1.13.2]	15
